test: small molecules captured by biotinylated probe aFGF2 – biochemical, small-molecule microarray, fluorescence 635/667, stem cell growth factor project, primary screen (AID 1067); conditions: higher = more signal;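 further: measures binding of biotinylated aFGF2 protein to printed compounds on slides; z-score merges feature fluorescence and signal-to-noise across triplicate slides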
Catalogue of composite z-score readings, one per entry.
Readout kind: composite z-score

>>> reported_measurement("CC(C)CCC[C@@H](C)[C@H]1CC[C@@]2(C)C3=C(CC[C@]12C)[C@@]1(C)CC[C@H](OC(=O)C(C)(C)C)C(C)(C)C1CC3 (some centres undefined)")
-0.0609
>>> reported_measurement("CC(C)(C)N1CC=CC23O[C@@H]4C=CCCOC(=O)C4[C@H]2C(=O)N(CCCO)[C@@H]3C1=O (some centres undefined)")
-0.181
>>> reported_measurement("CN(C)CCCCCCNC(=O)[C@@H]1C[C@@H]2C(=O)NCC(=O)N2[C@@H]1c1ccc(O)cc1")
0.0231
>>> reported_measurement("O=C(NCc1ccccc1)[C@]1(Cc2ccccc2)N=C(c2ccc(OCCCO)cc2)O[C@@H]1c1ccccc1")
-0.0499
>>> reported_measurement("CCOC(=O)C1=CC[C@@H](c2cccc(Br)c2)N(S(=O)(=O)c2ccc(C)cc2)[C@H]1c1ccc([N+](=O)[O-])cc1")
-0.0535
>>> reported_measurement("COc1cc2c(cc1OC)CN(C(=O)[C@@H]1[C@H]3C(=O)O[C@H](c4ccccc4)[C@H](c4ccccc4)N3[C@H](c3ccc(O)cc3)[C@@]13C(=O)Nc1ccc(C#CCNC(N)=O)cc13)CC2")
-0.0616
>>> reported_measurement("[N-]=[N+]=Nc1ccccc1[C@@H]1OC(c2ccc(OCCCO)cc2)=N[C@]1(CCS(=O)(=O)c1ccccc1)C(=O)NCc1ccccc1")
0.294
>>> reported_measurement("C=CCC(OC(C)=O)[C@@H]1[C@@H](N(Cc2cccc3ccccc23)C(=O)Cc2ccc(F)cc2)c2cc(OCCCO)ccc2N1C(=O)Cc1ccc(OC)cc1 (some centres undefined)")
-0.116
>>> reported_measurement("COc1ccc([Si](C)(C)[C@@H]2[C@@H](CCO)O[C@]3(C(=O)N(Cc4ccccc4)c4ccc(N5C(=O)COc6ccccc65)cc43)[C@H]2C)cc1")
-0.0973
>>> reported_measurement("CC(C)c1ccc(NN2C(C(O)c3cccs3)C=CC3C(=O)N(c4ccccc4)C(=O)C32)cc1 (centres undefined)")
0.117
>>> reported_measurement("COc1cc(NN2C(C(O)c3ccc(I)cc3)C=CC3C(=O)N(C)C(=O)C32)cc(OC)c1OC (centres undefined)")
-0.0207
>>> reported_measurement("CCCCC(=C=CC[C@H](O)c1ccccc1OCCO)C[C@H](O)c1ccccn1")
-0.116
>>> reported_measurement("CC(C)C[C@H]1NC(=O)[C@H](C)NC(=O)[C@@]23C(=O)N[C@@H](Cc4ccccc4)C2[C@H](C)[C@@]2(C)O[C@H]2C3/C=C/C/C=C\\CNC1=O (some centres undefined)")
-0.104
>>> reported_measurement("CC(C)NC(=O)[C@@H]1c2ccccc2C(=O)N(Cc2cc(C(F)(F)F)cc(C(F)(F)F)c2)[C@H]1c1ccc(CO)cc1")
0.0032
>>> reported_measurement("CCCC=C(CCC)[C@@H](NS(=O)(=O)c1cccc2cccnc12)c1ccc(C(=O)OC)cc1")
0.84
>>> reported_measurement("CCN(CC)c1ccc(N2CC=CC34O[C@@H]5/C=C\\CCCOC(=O)C5[C@H]3C(=O)N(CCCCCCO)[C@@H]4C2=O)cc1 (some centres undefined)")
-0.119
>>> reported_measurement("C[N+](C)(C)CCCCCCNC(=O)[C@H]1C[C@H]2C(=O)N3CCC[C@H]3C(=O)N2[C@H]1c1cccc(OCCO)c1")
0.0111
>>> reported_measurement("COC(=O)[C@@]1(Cc2ccc(OC)cc2)[C@H]2c3cc(C(=O)N(C)C)n(Cc4cc(F)c(F)c(F)c4)c3C[C@H]2CN1C(=O)c1ccccc1")
0.329
>>> reported_measurement("CC(C)(C)OC(=O)CC[C@@]1(C(=O)N2CCCCC2)N=C(c2ccc(OCCCO)cc2)O[C@@H]1c1ccccc1CN=[N+]=[N-]")
0.103
>>> reported_measurement("COC(=O)C(CC#Cc1ccc2c(c1)[C@]1(C(=O)N2)[C@H](c2ccc(O)cc2)N2[C@H](c3ccccc3)[C@H](c3ccccc3)OC(=O)[C@H]2[C@@H]1C(N)=O)C(=O)OC")
-0.168
>>> reported_measurement("O=C1C2C=CC(C(O)c3ccc(Br)cc3)N(Nc3ccccc3)C2C(=O)N1c1ccccc1 (centres undefined)")
0.191
>>> reported_measurement("CCCCCCCCCCC(O)C1C=CC2C(=O)NC(=O)C2N1Nc1ccccn1 (centres undefined)")
-0.0899
>>> reported_measurement("COCC1=C([C@H](O)CCc2ccccc2)[C@H](CO)[C@@H]2C(=O)N(C)C(=O)[C@@H]2C1")
-0.235
>>> reported_measurement("CO[C@H]1O[C@H](CO)[C@@H](OC(=O)Nc2ccc(C(F)(F)F)cc2)[C@H](OC(=O)Nc2ccccc2)[C@H]1OC(=O)Nc1ccccc1")
0.233
>>> reported_measurement("O=C1O[C@@H](c2ccccc2)[C@@H](c2ccccc2)N2[C@@H](c3ccc(O)cc3)[C@]3(C(=O)Nc4ccc(C#CC5=CCCCC5)cc43)[C@@H](C(=O)Nc3nc4ccccc4s3)[C@H]12")
-0.0455
>>> reported_measurement("C=C[C@H](C)[C@H](OC(=O)Nc1ccc(SC)cc1)c1ccc(O)c2ccccc12")
0.0243
>>> reported_measurement("COCCCNC(=O)[C@@]1(Cc2ccccc2N=[N+]=[N-])N=C(c2ccc(OCCCO)cc2)O[C@H]1c1ccccc1CN=[N+]=[N-]")
0.185
>>> reported_measurement("CCCCCCC#C[Si](O[C@H](c1ccccc1)c1cn(Cc2cccc(Cl)c2)nn1)(C(C)C)C(C)C")
-0.161
>>> reported_measurement("COC(=O)[C@@]1(Cc2ccc(F)cc2)[C@@H]2[C@@H](CC(=O)[C@H]2CC(=O)C(=O)N2CCCC2)CN1C(=O)c1ccccc1")
0.0255
